pKd values by entry
Target: T1, human myostatin (human, UniProt O14793 267-375, biotinylated in selections and radioactive assays (site not stated))
T1 construct: Phage ELISA used both unbiotinylated and biotinylated myostatin; also called biotinylated human myostatin; myostatin-biotin
T1 sequence (looked up): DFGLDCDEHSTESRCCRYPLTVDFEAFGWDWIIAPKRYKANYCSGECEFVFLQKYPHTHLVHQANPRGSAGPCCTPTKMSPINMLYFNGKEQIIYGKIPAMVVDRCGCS
Test: radioactive equilibrium binding assay
Protocol: Affinities of selected F13β2 binders to biotinylated myostatin were determined in radioactive equilibrium binding assay (FIGS. 11A and 11B; Table 3). ³⁵S-labeled binder proteins from selection pools and single clones were produced in vitro in a rabbit reticulocyte lysate translation kit (Ambion) and purified on M2-agarose (Sigma). […] The beads were washed five times with 100 μl buffer B, and the amount of ³⁵S-methionine remained on the beads was measured by scintillation counting. […]
pKd: −log10 of the molar value.
ENDPOINT_NAME: pKd

[[record]]
binder = "39633-D2 (designed binder, group M2-A50) MTIPEIIIKVRGTQVVGSDMTVIVEFTNLMKETLRNVWVHLDGPGVTRPMKKMFSEIRPNSTVQWEEVVRPWVSGHRKLIASMPSLLHLHVYGELDVQIQRRDYKDDDDK"
data_value = 7.95

[[record]]
binder = "39908-H10 (designed binder, group M2-A50; also called M4 (clone ID)) MTIPEIIIKVRGTQVVGSDMTVIVEFTNPFKETLRSVWVHLDGPGVTRPMKKMFREIPPKTTVQWEEVVRPWVSGHRKLIASMPSLLHLHVYGELDVQIQRRDYKDDDDK"
data_value = 7.53

[[record]]
binder = "39973-C10 (designed binder, group M1-A) MTIPEIIIKVRGTQVVGSDMTVIVEFTNPLKETLRNVWVHLDGPGVTRPMKKMFPTISRFKRVQWEEVVRPWVSGHRKLIASMPQLQHLHVYGELDVQIQRRDYKDDDDK"
data_value = 7.64

[[record]]
binder = "45927-B7 (M50T) (designed binder, group M1-Aext; M50T) MTIPEIIIKVRGTQVVGSDMTVIVEFTNPLKETLRNVWVHLDGPGVTRPTKKMFLKIPGCSTVQWEEVVRPWVSGHRKLIASMSMLGLPFSLRFIPVYGELDVQIQRRDYKDDDDK"
data_value = 7.24

[[record]]
binder = "39973-B12 (designed binder, group M3-A) MTIPEIIIKVRGTQVVGSDMTVIVEFKHDRYRYLQQVWVHLDGPGVTRPMKKMFKLIIFSYPVQWEEVVRPWVSGHRKLIASMRFMCPSHVYGELDVQIQRRDYKDDDDK"
data_value = 7.46

[[record]]
binder = "39908-G4 (designed binder, group M2-A50; also called M7 (clone ID)) MTIPEIIIKVRGTQVVGSDMTVIVEFSNPFKETLRNVWVHLDGPGVTRPMKKMFSEIRPNSTVQWEEVVRPWVSGHRKLIASMPSLLHLHVYGELDVQIQRRDYKDDDDK"
data_value = 7.55

[[record]]
binder = "39908-F8 (K52R) (designed binder, group M1-A50; V91L, K52R) MTIPEIIIKVRGTQVVGSDMTVIVEFTNPFKETLRSVWVHLDGPGVTRPMKRMFREIPPETTVQWEEVVRPWVSGHRKLIASMRTQYLIHLYGELDVQIQRRDYKDDDDK"
data_value = 7.44

[[record]]
binder = "39885-D11 (designed binder, group M2-A) MTIPEIIIKVRGTQVVGSDMTVIVEFTNPLKETLRNVWVHLDGPGVTRPMKKMFPAIPMNHKVQWEEVVRPWVSGHRKLIASMINHFYKHVYGELDVQIQRRDYKDDDDK"
data_value = 7.39

[[record]]
binder = "39973-G3 (designed binder, group M3-A) MTIPEIIIKVRGTQVVGSDMTVIVEFTNPLKETLRNVWVHLDGPGVTRPMKKMFEQIRESEYVQWEEVVRPWVSGHRKLIASMLTETRPHVYGELDVQIQRRDYKDDDDK"
data_value = 7.66

[[record]]
binder = "39908-C6 (designed binder, group M3-A50; ΔS82, M83R; also called M05 (clone ID)) MTIPEIIIKVRGTQVVGSDMTVIVEFTNPFKETLRSVWVHLDGPGVTRPMKKMFCEIRPNSIVQWEEVVRPWVSGHRKLIARCSLSPWHVYGELDVQIQRRDYKDDDDK"
data_value = 7.71

[[record]]
binder = "45927-A10 (designed binder, group M3-Aext; H76R (wild type scaffold numbering)) MTIPEIIIKVRGTQVVGSDMTVIVEFTNPKRDTSVWLRNVWVHLDGPGVTRPMKKMFFTIGYPSTVQWEEVVRPWVSGRRKLIASMSPSILSKGNIGLGVYGELDVQIQRRDYKDDDDK"
data_value = 7.79

